Attribution: patent US12139492B2

# TARGET_SYSTEM: UniProt:Q06187
# Sequence (Q06187 whole entry): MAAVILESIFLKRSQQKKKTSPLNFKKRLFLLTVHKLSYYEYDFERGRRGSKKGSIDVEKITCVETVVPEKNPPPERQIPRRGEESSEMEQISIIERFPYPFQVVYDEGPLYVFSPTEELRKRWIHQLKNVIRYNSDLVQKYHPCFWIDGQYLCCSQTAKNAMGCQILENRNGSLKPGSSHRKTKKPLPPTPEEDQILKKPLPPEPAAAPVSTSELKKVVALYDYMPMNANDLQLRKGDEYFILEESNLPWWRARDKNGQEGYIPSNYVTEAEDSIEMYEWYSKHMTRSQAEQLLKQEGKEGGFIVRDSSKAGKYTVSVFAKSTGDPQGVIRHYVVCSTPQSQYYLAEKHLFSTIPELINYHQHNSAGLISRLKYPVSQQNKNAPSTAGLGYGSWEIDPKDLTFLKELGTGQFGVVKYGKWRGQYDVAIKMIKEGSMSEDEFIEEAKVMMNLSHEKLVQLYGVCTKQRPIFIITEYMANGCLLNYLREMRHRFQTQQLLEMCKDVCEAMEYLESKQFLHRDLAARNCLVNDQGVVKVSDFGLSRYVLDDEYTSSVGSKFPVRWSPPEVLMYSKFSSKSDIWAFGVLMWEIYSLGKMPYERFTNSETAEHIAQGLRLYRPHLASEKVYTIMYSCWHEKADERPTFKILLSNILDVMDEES
# EXPERIMENT: BTK degradation, DC50 and Dmax of Table 1 (cell line not given)
# Format: cell-based
# Design: endogenous in cells
# CONDITION_SET: concentration giving 50% reduction of BTK expression level
In this section, each of the compounds is paired with its reported DC50.

Examples from the recorded data:
COMPOUND	DC50
Nc1ncnc2c1c(-c1ccc(Oc3ccccc3)cc1)nn2C1CCN(C(=O)N2CCC(CN3CCC(c4ccc5c(c4)C(=O)N(C4CCC(=O)NC4=O)C5=O)CC3)CC2)CC1 (centres unmarked) [Compound 91]	< 10 nM
Nc1ncnc2c1c(-c1ccc(Oc3ccccc3)cc1)nn2[C@@H]1CCCN(C(=O)N2CCC(N3CCC(c4ccc5c(c4)CN(C4CCC(=O)NC4=O)C5=O)CC3)CC2)C1 (some centres unmarked) [Compound 54]	< 10 nM
Nc1ncnc2c1c(-c1ccc(Oc3ccccc3)cc1)nn2[C@@H]1CCCN(CC2CCN(CCCN3CCC(c4ccc5c(c4)C(=O)N(C4CCC(=O)NC4=O)C5=O)CC3)CC2)C1 (some centres unmarked) [Compound 139]	10 to 50 nM
Nc1ncnc2c1c(-c1ccc(Oc3ccccc3)cc1)nn2C1CCN(C(=O)N2CCN(CCCN3CCC(c4ccc5c(c4)CN(C4CCC(=O)NC4=O)C5=O)CC3)CC2)CC1 (centres unmarked) [Compound 124]	> 50 nM
Nc1ncnc2c1c(-c1ccc(Oc3ccccc3)cc1)nn2[C@@H]1CCCN(C(=O)N2CCC(CCC3CCN(c4ccc5c(c4)CN(C4CCC(=O)NC4=O)C5=O)CC3)CC2)C1 (some centres unmarked) [Compound 72]	< 10 nM
Nc1ncnc2c1c(-c1ccc(Oc3ccccc3)cc1)nn2[C@@H]1CCCN(C(=O)N2CCN(CC3CCN(c4ccc5c(c4)C(=O)N(C4CCC(=O)NC4=O)C5=O)CC3)CC2)C1 (some centres unmarked) [Compound 57]	10 to 50 nM
Nc1ncnc2c1c(-c1ccc(Oc3ccccc3)cc1)nn2[C@@H]1CCCN(C2CCN(CCN3CCC(c4ccc5c(c4)C(=O)N(C4CCC(=O)NC4=O)C5=O)CC3)CC2)C1 (some centres unmarked) [Compound 149]	10 to 50 nM
Nc1ncnc2c1c(-c1ccc(Oc3ccccc3)cc1)nn2[C@@H]1CCCN(C2CCN(C(=O)N3CCN(CCCN4CCC(c5ccc6c(c5)CN(C5CCC(=O)NC5=O)C6=O)CC4)CC3)CC2)C1 (some centres unmarked) [Compound 192]	10 to 50 nM
Nc1ncnc2c1c(-c1ccc(Oc3ccccc3)cc1)nn2[C@@H]1CCCN(C2CCN(C(=O)N3CCC(CCC4CCN(c5ccc6c(c5)CN(C5CCC(=O)NC5=O)C6=O)CC4)CC3)CC2)C1 (some centres unmarked) [Compound 186]	10 to 50 nM
Nc1ncnc2c1c(-c1ccc(Oc3ccccc3)cc1)nn2C1CCN(CCOCCOCCN2CCC(c3ccc4c(c3)C(=O)N(C3CCC(=O)NC3=O)C4=O)CC2)CC1 (centres unmarked) [Compound 9]	< 10 nM

Note: attention shifts to another entry.
Request: Which value of DC50 has been reported for Nc1ncnc2c1c(-c1ccc(Oc3ccccc3)cc1)nn2[C@@H]1CCCN(C2CCN(C(=O)N3CCC(N4CCN(c5ccc6c(c5)CN(C5CCC(=O)NC5=O)C6=O)CC4)CC3)CC2)C1 (some centres unmarked) [Compound 162] in the records?
Response: < 10 nM
